Source listed as paper PMC4336329.

Quick list: hERG current change (%, negative = inhibition) at 10uM per entry.
ASSAYED_SYSTEM: human ether-à-go-go-related gene (hERG) potassium channel (human, UniProt Q12809);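 also: peak tail current of the secondary pulse compared with the same well before compound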
Sequence (Q12809 whole entry, looked up): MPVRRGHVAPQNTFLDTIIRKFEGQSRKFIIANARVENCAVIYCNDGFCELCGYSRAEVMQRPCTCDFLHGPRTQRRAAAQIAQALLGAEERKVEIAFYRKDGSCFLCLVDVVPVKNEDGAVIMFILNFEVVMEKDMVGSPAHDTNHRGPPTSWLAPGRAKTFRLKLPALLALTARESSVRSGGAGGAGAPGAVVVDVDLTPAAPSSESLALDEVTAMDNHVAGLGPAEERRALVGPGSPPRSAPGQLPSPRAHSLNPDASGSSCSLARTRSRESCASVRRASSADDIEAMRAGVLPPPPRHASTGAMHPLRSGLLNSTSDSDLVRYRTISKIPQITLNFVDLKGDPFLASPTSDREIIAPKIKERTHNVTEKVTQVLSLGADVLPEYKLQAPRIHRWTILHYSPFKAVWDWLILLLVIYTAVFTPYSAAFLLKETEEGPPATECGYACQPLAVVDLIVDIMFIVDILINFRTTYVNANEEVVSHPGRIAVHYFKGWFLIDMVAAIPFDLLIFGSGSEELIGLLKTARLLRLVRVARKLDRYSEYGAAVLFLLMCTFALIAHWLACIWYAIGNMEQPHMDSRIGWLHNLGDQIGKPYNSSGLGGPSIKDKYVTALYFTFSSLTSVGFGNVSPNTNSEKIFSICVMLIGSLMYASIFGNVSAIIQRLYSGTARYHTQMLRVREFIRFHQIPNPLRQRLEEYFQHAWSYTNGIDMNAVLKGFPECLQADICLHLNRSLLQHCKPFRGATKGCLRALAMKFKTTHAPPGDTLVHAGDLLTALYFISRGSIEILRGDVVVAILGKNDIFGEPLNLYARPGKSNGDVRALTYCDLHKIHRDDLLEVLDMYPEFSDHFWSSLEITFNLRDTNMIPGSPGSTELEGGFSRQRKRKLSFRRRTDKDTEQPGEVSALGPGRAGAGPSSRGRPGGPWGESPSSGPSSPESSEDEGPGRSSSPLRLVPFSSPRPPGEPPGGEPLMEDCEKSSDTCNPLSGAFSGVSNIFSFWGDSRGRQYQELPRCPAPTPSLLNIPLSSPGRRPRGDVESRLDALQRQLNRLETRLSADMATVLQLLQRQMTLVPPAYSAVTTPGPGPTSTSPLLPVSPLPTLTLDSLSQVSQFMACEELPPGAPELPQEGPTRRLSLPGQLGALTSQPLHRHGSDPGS
TEST_SUMMARY: primary screen, population patch clamp on CHO cells stably expressing hERG; higher = less effect of the substance
In all, about 310,000 compounds went through this assay and about 14,000 (4.5%) showed an effect of 50% or more. The effect is printed as a negative number. This is one part of a sample in which strong results are shown more often than they occur.
The reply should contain only the number, in %.

In the examples that follow, each entry is paired with its recorded hERG current change (%, negative = inhibition) at 10uM.
O=C(CN1CCc2ccccc2C1)Nc1ccccc1N1CCCCCC1.O=C(O)C(=O)O
-5.79
COc1ccc(-c2nnc(SCC(=O)c3cccs3)o2)cc1
-8.4
OCC[C@H]1C[C@H](O)[C@@H](O)[C@]2(OCCc3ccccc32)O1
2.59

# value of hERG current change (%, negative = inhibition) at 10uM, human ether-à-go-go-related gene (hERG) potassium channel (human, UniProt Q12809), item `O=C(O)c1ccc(-c2ccc(OS(=O)(=O)c3ccccc3F)cc2)cc1` = 9.84

# value of hERG current change (%, negative = inhibition) at 10uM, human ether-à-go-go-related gene (hERG) potassium channel (human, UniProt Q12809), item `c1ccc(N2CCN(Cc3nc4ccccc4[nH]3)CC2)nc1` = 9.64

Short answer on human ether-à-go-go-related gene (hERG) potassium channel (human, UniProt Q12809) for `Cl.Nc1nc(N2CCN(c3ccccn3)CC2)nc2ccccc12` , hERG current change (%, negative = inhibition) at 10uM: -68.4

// compound `O=C(COc1ccccc1)NCC(=O)N1CCCCCC1` , assay human ether-à-go-go-related gene (hERG) potassium channel (human, UniProt Q12809), hERG current change (%, negative = inhibition) at 10uM value: 7.21

The compound `Cl.Nc1nc(N2CCN(C/C=C/c3ccccc3)CC2)nc2ccccc12` on human ether-à-go-go-related gene (hERG) potassium channel (human, UniProt Q12809): hERG current change (%, negative = inhibition) at 10uM was -67.7

Item `Cc1nc(SCC(=O)c2c(N)n(C3CC3)c(=O)[nH]c2=O)[nH]c(=O)c1CCO` was tested on human ether-à-go-go-related gene (hERG) potassium channel (human, UniProt Q12809); the reported hERG current change (%, negative = inhibition) at 10uM is 17

The compound `CCOc1ccc(C(=O)NCCNC(=O)c2ccc(OCC)cc2)cc1` , when measured on human ether-à-go-go-related gene (hERG) potassium channel (human, UniProt Q12809), yielded hERG current change (%, negative = inhibition) at 10uM of 9.15
